# reported furin cleavage Z-score; entries follow
- Tgt: furin, P09958
- Sequence (P09958 whole entry): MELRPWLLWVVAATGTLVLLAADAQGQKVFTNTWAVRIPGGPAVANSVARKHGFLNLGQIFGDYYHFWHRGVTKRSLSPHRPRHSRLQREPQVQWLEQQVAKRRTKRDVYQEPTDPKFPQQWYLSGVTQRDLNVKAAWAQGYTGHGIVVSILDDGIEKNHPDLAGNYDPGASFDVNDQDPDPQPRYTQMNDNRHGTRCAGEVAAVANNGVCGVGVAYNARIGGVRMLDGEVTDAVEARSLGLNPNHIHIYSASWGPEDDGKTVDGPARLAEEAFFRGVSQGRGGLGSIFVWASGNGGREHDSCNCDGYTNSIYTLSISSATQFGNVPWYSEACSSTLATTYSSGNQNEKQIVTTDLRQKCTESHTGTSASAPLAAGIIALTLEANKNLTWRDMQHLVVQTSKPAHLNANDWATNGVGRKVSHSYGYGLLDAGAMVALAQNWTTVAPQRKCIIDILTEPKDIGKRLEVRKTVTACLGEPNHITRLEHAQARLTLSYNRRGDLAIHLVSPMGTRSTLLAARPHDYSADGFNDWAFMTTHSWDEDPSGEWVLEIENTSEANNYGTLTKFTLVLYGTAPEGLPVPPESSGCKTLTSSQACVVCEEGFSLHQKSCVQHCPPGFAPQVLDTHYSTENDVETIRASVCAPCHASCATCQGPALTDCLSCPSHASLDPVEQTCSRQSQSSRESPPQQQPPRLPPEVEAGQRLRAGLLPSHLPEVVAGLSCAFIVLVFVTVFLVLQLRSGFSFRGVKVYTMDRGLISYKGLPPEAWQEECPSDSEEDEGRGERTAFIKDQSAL
- Assay summary: furin cleavage Z-score vs untreated control; higher = more cleavage, active = 3.5 or more, inactive = 1 or less, 8 variable residues between constant flanks;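 also: purified furin at 1:10 enzyme:substrate in 50 mM HEPES pH 7.5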
- Experimental parameters: 7.5 min
Some of the results follow. The true hit rate is not given.
Reported endpoint: furin cleavage Z-score

INSERT INTO assay_data (residues, reported_endpoint, endpoint_result) VALUES
  ('CARKRRAPLAAGNASASA [FS-2698]', 'furin cleavage Z-score', 6.06),
  ('CAPESRKRREAGNASASA [FS-368]', 'furin cleavage Z-score', 13.9),
  ('CARPFRQVLAAGNASASA [FS-2738]', 'furin cleavage Z-score', -0.792),
  ('CAGCVPCVREAGNASASA [HC273]', 'furin cleavage Z-score', 0.467),
  ('CACVLRSKRDAGNASASA [FS-406]', 'furin cleavage Z-score', 9.82),
  ('CAATGNLPGCAGNASASA [HC243]', 'furin cleavage Z-score', -1.92),
  ('CACVSRSKRDAGNASASA [FS-407]', 'furin cleavage Z-score', 13);
